- TARGET_OR_TEST_SYSTEM: T1, GST-MDMX containing full-length human MDMX (human, UniProt O15151 1-490)
- T1 construct: mature; Expressed in E. coli and purified on glutathione-agarose; not shown: GST tag
- T1 sequence (looked up): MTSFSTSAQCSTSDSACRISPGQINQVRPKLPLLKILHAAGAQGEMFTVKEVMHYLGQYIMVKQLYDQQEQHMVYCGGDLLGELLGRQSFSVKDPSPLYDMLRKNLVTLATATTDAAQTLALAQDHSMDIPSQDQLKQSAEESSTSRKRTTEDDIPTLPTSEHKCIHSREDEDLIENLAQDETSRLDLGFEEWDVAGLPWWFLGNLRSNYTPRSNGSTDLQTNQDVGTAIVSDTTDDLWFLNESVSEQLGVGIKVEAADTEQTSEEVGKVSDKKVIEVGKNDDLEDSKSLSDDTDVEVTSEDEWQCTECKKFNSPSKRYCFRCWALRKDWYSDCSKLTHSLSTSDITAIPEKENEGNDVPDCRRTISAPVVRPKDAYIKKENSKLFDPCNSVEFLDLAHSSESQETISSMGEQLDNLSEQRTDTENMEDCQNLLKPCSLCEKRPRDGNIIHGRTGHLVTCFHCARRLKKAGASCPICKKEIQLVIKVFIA
- MEASUREMENT_NOTES: competition ELISA: peptide + GST-MDMX on plated His6-p53
pIC50: −log10 of the molar value. Bridges are numbered along the chain shown (N, C = ends). L3 = not defined here
ASSAY_METRIC: pIC50

[a] Ac-LTFXHYWXRLRS-NH2 (bridge 4-8 via L3; not fully specified (residues 4, 8); printed as LTFαHYWβRLRS, Stapled peptide) [sPDI-9]
[b] Ac-TSFAXYWNXLSP-NH2 (bridge 5-9 via L3; not fully specified (residues 5, 9); printed as TSFAαYWNβLSP; also: pyrazoline cross-linker L3 between α and β, Stapled peptide) [sPMI-2]
Q. Looking at recorded values for pIC50, does a or b come in lower? Answer format: the label of the selected item.
A. b
(b: 5.44, a: 6.28)
